test system: Candida albicans; test: Antifungal activity against Candida albicans ATCC 90028 by sphingolipid reversal assay in presence of 1.25 ug/mL dihydrosphingosine; format: functional, organism-based
parameter: IC50 (µg/mL)
Output spec: scalar in µg/mL, unitless text.

| compound | number |
| --- | --- |
| Nc1nc(=O)[nH]cc1F [FLUCYTOSINE] | 0.2 |
| OC(Cn1cncn1)(Cn1cncn1)c1ccc(F)cc1F [FLUCONAZOLE] | 0.3 |
| CCCCCCCCCCCCC#CCCCCC(=O)O [6-NONADECYNOIC ACID] | 1 |

Lab note: next compound to report on.
// query Quickly give me recorded IC50 for CCCCCCCCCCCC#CCCCCC(=O)O [6-OCTADECYNOIC ACID]
// result 0.7

Cited source for all entries: ChEMBL document CHEMBL1146583
